biological target: mGlyT-1b (Mus musculus, UniProt P28571); assay: Glycine Uptake Inhibition Assay (mGlyT-1b)
Sequence (P28571 1-651 isoform P28571-2): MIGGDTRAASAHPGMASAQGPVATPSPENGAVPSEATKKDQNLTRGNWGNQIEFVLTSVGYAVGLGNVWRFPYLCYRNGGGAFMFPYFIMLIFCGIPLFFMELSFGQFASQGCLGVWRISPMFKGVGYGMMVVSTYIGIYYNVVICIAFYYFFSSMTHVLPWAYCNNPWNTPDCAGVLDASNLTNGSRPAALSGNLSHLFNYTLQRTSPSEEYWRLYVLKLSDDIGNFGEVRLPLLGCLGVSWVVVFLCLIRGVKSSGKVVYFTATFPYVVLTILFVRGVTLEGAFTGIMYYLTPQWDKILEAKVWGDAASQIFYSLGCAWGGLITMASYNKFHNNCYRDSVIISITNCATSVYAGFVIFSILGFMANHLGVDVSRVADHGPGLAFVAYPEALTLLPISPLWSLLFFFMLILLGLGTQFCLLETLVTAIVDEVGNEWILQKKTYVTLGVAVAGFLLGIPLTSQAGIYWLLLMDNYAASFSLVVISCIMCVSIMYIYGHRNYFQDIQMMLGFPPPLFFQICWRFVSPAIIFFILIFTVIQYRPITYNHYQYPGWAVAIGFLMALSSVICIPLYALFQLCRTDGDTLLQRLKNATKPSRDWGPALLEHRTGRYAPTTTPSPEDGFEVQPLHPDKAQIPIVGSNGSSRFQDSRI
EXPERIMENTAL_ENDPOINT: IC50 (nM)
Field: numeric (nM). Do not append units.

Enquiry: Find the recorded IC50 belonging to "COc1ccc(C(=O)N(CC(=O)Nc2ccc(Cl)c(Cl)c2)c2ccccc2F)cc1" and report it.
Return: 315

Enquiry: If you can, please state the reported IC50 value of "N#Cc1cccc(C(=O)N(CC(=O)Nc2ccc(Cl)c(Cl)c2)c2ccccc2)c1" .
Return: 350

Enquiry: Report IC50 for "O=C(CN(Cc1ccccc1Cl)C(=O)c1cc2ccccc2s1)Nc1cccc(F)c1" please.
Return: 88

Enquiry: Quick check: IC50 of "O=C(CN(Cc1ccccc1Cl)C(=O)c1ccc(Cl)cc1)Nc1cccc(Cl)c1" ?
Return: 25

Enquiry: // IC50 lookup, key: "O=C(CN(Cc1ccc(F)c(F)c1)C(=O)c1cc2ccccc2s1)Nc1cccc(F)c1"
Return: 167

Enquiry: Would you mind telling me what IC50 value was observed for "O=C(CN(Cc1cccc(F)c1F)C(=O)c1ccc(OC(F)(F)F)cc1)Nc1ccc(F)c(Cl)c1" ?
Return: 78

Enquiry: Which IC50 is reported for this molecule? "O=C(CN(Cc1cccc(Cl)c1)C(=O)c1ccc(Cl)cc1)Nc1cccc(Cl)c1"
Return: 21

Enquiry: Need IC50 of "O=C(CN(Cc1ccccc1Cl)C(=O)c1ccc(Cl)cc1)Nc1ccc(F)c(Cl)c1" , thanks.
Return: 142
